# Test system: intestinal alkaline phosphatase [Mus musculus]
# test name: mouse intestinal phosphatase enzyme inhibition – biochemical, luminescence, uHTS, primary screen (AID 2806);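 note: plate controls were DMSO with enzyme for no effect and no enzyme wells for full effect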
# assay context: purified mouse IAP, CDP-Star luminescence, 30 min; at 10 µM
In all, about 330,000 compounds went through this assay and about 660 (0.2%) were called active.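 Rule for the calls: active = inhibition of at least 40% at 10 µM in the primary screen; inactive = the rest.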 For the sample, actives were picked, then their nearest neighbours and some compounds at random.
Pick one: 1 (active), 0 (inactive)

Status in this test for O=C(NCCOc1cccnc1)c1ccc(OC2CCN(Cc3ccccn3)CC2)cc1 ?
0

Name the outcome recorded for COc1cc(/C=N/NC(=O)CCc2n[nH]c(=O)[nH]c2=O)ccc1O in the assay.
0

What was the test verdict on COC(=O)CN(c1nc(C)c(Cl)c(OC)n1)S(=O)(=O)c1ccc(C)cc1 ?
0

What was the test verdict on Nc1ccccc1Sc1cc(Cl)nnc1Cl ?
0

Just curious, what result did COc1ccc(NC(=O)CSc2nnc(C3CC3)n2C)cc1S(=O)(=O)N1CCCCC1 get here?
0

Assay result, entry O=c1c(F)cn(C2CCCO2)c(=O)n1Cc1ccccc1Cl (stereo not drawn) — outcome?
0

What did the test return for O=C(COC(=O)Cn1[nH]c(=O)c2ccccc2c1=O)Nc1c(Cl)cccc1C(F)(F)F ?
0

// outcome(item) with item = CC(=O)c1sc(N/N=C\c2ccc(C)cc2)nc1C
0

Per the records of this test, what outcome belongs to Brc1cnc2ccccc2c1N1CCCCC1 ?
0

Which outcome did this test record for the compound COc1ccc(NC(=O)C2CCC(CNc3c(N4CCCCC4)c(=O)c3=O)CC2)c(OC)c1 (stereo not drawn) ?
0

Fill in: this test's call for COc1cc(CN2CCNC(=O)C2CC(=O)NCCc2ncccc2C)cc(OC)c1 (stereo not drawn) is ___
0

GET /call?item= CNC(=O)NCCN1CCCC1=O returns the recorded outcome of this test.
0

Give the logged outcome of this assay for the following compound: Cc1cccc(NC(=O)c2cc(S(=O)(=O)N3CCC4(CC3)OCCO4)ccc2F)c1
0

Please let me know the test result on file for Cc1occc1-c1nnc(SCC(=O)NC2CCCCC2)o1 .
0

Hi team, can someone confirm the assay call for CCOc1ccc(N2C(=O)CN(c3cccc4ccccc34)C2=S)cc1 ?
0

Recorded test call requested for Cc1ccc(-c2nnn(CC(=O)N(CCO)C(C(=O)NC(C)(C)C)c3ccncc3)n2)cc1 (stereo not drawn)
0

Please indicate how the test categorized O=C(N1CCCCC1)N1CCN(C(=O)N2CCCCC2)CC1 .
0

Which result was noted for this compound in the test: CC(=O)c1c(C)[nH]c(C(=O)NCc2ccc(C)cc2)c1C
0

Recorded test outcome, item COc1ccccc1CCNC(=O)c1c(C)nn(CC(C)C)c1Cl
0

Status in this test for Cn1cnc([N+](=O)[O-])c1Sc1n[nH]c(N)n1 ?
0

Please indicate how the test categorized FC(F)(F)c1nnc2c3ccccc3c(Cl)nn12 .
0

Test call, this compound: COc1cc(/C=N\Nc2nc(-c3cccs3)c(NC(C)=O)s2)ccc1O
1

Hello, I am checking results. What call was entered for O=C(CCCN1C(=O)/C(=C\c2ccco2)SC1=S)Nc1cccc2ccccc12 ?
1
